system: HCT-116 (colorectal carcinoma) cell line; assay: CellTiter-Glo luminescent cell viability assay, HCT-116; format: cell-based, human; details: Homo sapiens; HCT-116, compound at 10 μM, 72 h
In this section, each of the compounds is paired with its reported viability at 10 µM.

| COMPOUND | viability at 10 µM / % |
| --- | --- |
| CCN(CC)C1CCN(c2c(C#N)c(NCc3ccc(Cl)cc3)nc3ccccc23)C1 (centres unmarked) [Compound 126CN] | 93.3 |
| CC(C)(C)NC1CCN(c2c(C#N)c(Nc3cccc(F)c3)nc3ccccc23)CC1 [Compound 3262CN] | 0.5 |
| Cc1cc(Nc2nc3ccccc3c(N3CCC(NC(C)(C)C)CC3)c2C#N)ccc1F [Compound 3250CN] | 0.1 |
| Cn1cc(Nc2nc3ccccc3c(N3CCC(NC(C)(C)C)CC3)c2C#N)cn1 [Compound 3268CN] | 22.6 |
| N#Cc1c(NCc2ccc(Cl)cc2)nc2ccccc2c1N1CCC(Oc2ccc(F)cc2)CC1 [Compound 2942CN] | 75.1 |
